Source: patent US20220282217A1

Here, each record is paired with measured log10 IC50 data.
target: HLA-A02.01 (Homo sapiens, UniProt P04439, D140Y/D185E/D98H/E176V/E277Q/G131W/G231S/I119V/I121R/I166T/I218V/L300P/L318F/N151K/N90K/P208A/P217A/Q86G/Q94H/R138H/R169H/T345S); assay: Class I MHC peptide binding affinity (displacement of radiolabeled reference peptide); conditions: allele A02.01; read-out: Observed Affinity (IC50; (nM))
Where a SMILES comes first, the peptide text is derived from it.
Form field - Quantity: IC50; Unit: nM; Scale: log10

A selection of reference data follows.
Molecule	log10 IC50
CSCC[C@H](NC(=O)[C@H](CCC(=O)O)NC(=O)[C@H](CC(C)C)NC(=O)[C@H](CC(C)C)NC(=O)[C@H](CC(C)C)NC(=O)CN)C(=O)N[C@@H](CC(C)C)C(=O)N[C@@H](CC(=O)O)C(=O)N[C@@H](C)C(=O)O (H-GLLLEMLDA-OH; N-terminus and C-terminus assumed)	2.75
CC[C@H](C)[C@H](NC(=O)[C@@H](N)CC(C)C)C(=O)N[C@@H](CCSC)C(=O)N[C@@H](CCC(N)=O)C(=O)N[C@@H](CC(C)C)C(=O)N[C@@H](CCSC)C(=O)N1CCC[C@H]1C(=O)N[C@@H](Cc1ccccc1)C(=O)NCC(=O)O (H-LIMQLMPFG-OH; N-terminus and C-terminus assumed)	3.55
CC[C@H](C)[C@H](NC(=O)[C@H](CC(=O)O)NC(=O)[C@H](CC(C)C)NC(=O)[C@H](CC(C)C)NC(=O)[C@H](Cc1ccccc1)NC(=O)[C@H](Cc1ccccc1)NC(=O)[C@H](C)NC(=O)[C@@H](NC(=O)[C@@H](NC(=O)[C@@H](N)Cc1ccc(O)cc1)[C@@H](C)CC)[C@@H](C)O)C(=O)O (H-YITAFFLLDI-OH; N-terminus and C-terminus assumed)	1.81
CC(C)[C@H](NC(=O)[C@H](Cc1c[nH]cn1)NC(=O)[C@@H](NC(=O)[C@H](CCC(=O)O)NC(=O)[C@H](Cc1ccccc1)NC(=O)[C@H](CO)NC(=O)[C@@H](N)CC(N)=O)C(C)C)C(=O)N[C@@H](CS)C(=O)N[C@@H](C)C(=O)O (H-NSFEVHVCA-OH; N-terminus and C-terminus assumed)	2.70
CC(C)C[C@H](NC(=O)[C@H](C)N)C(=O)N[C@@H](Cc1c[nH]c2ccccc12)C(=O)N[C@@H](CCC(=O)O)C(=O)N[C@@H](CS)C(=O)N[C@@H](CO)C(=O)N[C@@H](CC(C)C)C(=O)N1CCC[C@H]1C(=O)N[C@@H](CCC(N)=O)C(=O)N[C@@H](C)C(=O)O (H-ALWECSLPQA-OH; N-terminus and C-terminus assumed)	0.95

Input line: Param item = CC(C)C[C@H](NC(=O)CN)C(=O)N[C@H](C(=O)N[C@@H](CC(=O)O)C(=O)N[C@@H](CCC(=O)O)C(=O)N[C@@H](CCC(N)=O)C(=O)N[C@@H](CCC(N)=O)C(=O)N[C@@H](CCC(=O)O)C(=O)N[C@H](C(=O)O)C(C)C)C(C)C ; retrieve measured log10 IC50.
Output line: 1.64

Input line: Param item = CSCC[C@H](NC(=O)[C@H](CC(C)C)NC(=O)[C@H](CCC(N)=O)NC(=O)[C@@H](N)CCSC)C(=O)N1CCC[C@H]1C(=O)N[C@@H](Cc1ccccc1)C(=O)NCC(=O)N[C@@H](CS)C(=O)N[C@@H](CC(C)C)C(=O)N[C@@H](CC(C)C)C(=O)O ; retrieve measured log10 IC50.
Output line: 1.30
